Provenance of the data: the RNAGym collection of RNA variant scans (doi:10.1093/molbev/msab373)

Here the recorded reverse-splicing fitness is given for each entry.
B1: Azoarcus group I ribozyme (parent)
chain: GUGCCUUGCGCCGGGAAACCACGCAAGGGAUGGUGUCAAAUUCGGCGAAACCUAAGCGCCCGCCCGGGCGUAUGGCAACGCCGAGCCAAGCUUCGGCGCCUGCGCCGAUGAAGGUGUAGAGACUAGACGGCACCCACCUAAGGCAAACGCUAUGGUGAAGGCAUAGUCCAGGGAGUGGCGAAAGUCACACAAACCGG

Variants of: B1
Assay: reverse-splicing fitness (ratio to wild type); higher = more active; in vitro selection; Mg2+ level not given
# answer = number (no unit)

# mutantDesignation, measured
data = [
    ("C82U A111U A120C A145U C150U C169G", 0.00796),
    ("C82U A120U A145G", 0.167),
    ("C82U A111C A145U C169U U176C", 0.0143),
    ("A111C A120G A145C C150G C169A U176C", 0.00838),
    ("A111C A120U A145U C150A U176G", 0.0123),
]

Next:
Field request: reverse-splicing fitness | item: A111U A120G A145U C150G C169A U176C
0.0105
